Sourced from patent US20210078972A1

Items are presented alongside their recorded IC50.
# target.or.test.system: AXL kinase domain recombinant protein (Homo sapiens)
# Construct: the AXL kinase domain recombinant protein (eurofins, 14-512)
# Sequence (P30530 536-807 limits assumed): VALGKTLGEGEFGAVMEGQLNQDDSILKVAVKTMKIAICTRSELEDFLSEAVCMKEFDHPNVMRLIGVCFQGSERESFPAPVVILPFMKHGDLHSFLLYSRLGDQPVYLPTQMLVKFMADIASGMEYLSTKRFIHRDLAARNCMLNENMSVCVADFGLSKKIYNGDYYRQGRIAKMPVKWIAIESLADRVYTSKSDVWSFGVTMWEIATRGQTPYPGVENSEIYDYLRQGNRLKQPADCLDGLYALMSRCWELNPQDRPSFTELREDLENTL
# assay.explanation: AXL kinase inhibition, ELISA
# experimental.parameters: ATP 5 μM

compound: COCCCOc1cc2c(Oc3ccc(NC(=O)c4c(C)n(C)c5ccc(OC(F)(F)F)cc5c4=O)cc3F)ncnc2cc1OC
IC50, nM: 1.8

compound: COc1cc2c(Oc3ccc(NC(=O)c4c(C)n(C)c5ccc(OC(F)(F)F)cc5c4=O)cc3F)ccnc2cc1OCCCN1CCOCC1
IC50, nM: 1.8

compound: COCCOc1cc2ncnc(Oc3ccc(NC(=O)c4c(C)n(C)c5ccc(OC(F)(F)F)cc5c4=O)cc3F)c2cc1OCCOC
IC50, nM: 4.2

compound: COc1cc2ncnc(Oc3ccc(NC(=O)c4c(C)n(C)c5ccc(OC(F)(F)F)cc5c4=O)cc3F)c2cc1OC
IC50, nM: 2.1

compound: COc1cc2c(Oc3ccc(NC(=O)c4c(C)n(C)c5ccc(OC(F)(F)F)cc5c4=O)cc3F)ncnc2cc1OCCN1CCOCC1
IC50, nM: 2

compound: COCCCCOc1cc2ncnc(Oc3ccc(NC(=O)c4c(C)n(C)c5ccc(OC(F)(F)F)cc5c4=O)cc3F)c2cc1OC
IC50, nM: 1.6

compound: COc1cc2c(Oc3ccc(NC(=O)c4c(C)n(C)c5ccc(OC(F)(F)F)cc5c4=O)cc3F)ncnc2cc1OCCCN1CCOCC1
IC50, nM: 1.1

compound: COc1cc2c(Oc3ccc(NC(=O)c4c(C)n(C)c5ccc(OC(F)(F)F)cc5c4=O)cc3F)ncnc2cc1OCCCN1CCCC1
IC50, nM: 1.5

compound: COc1cc2c(Oc3ccc(NC(=O)c4c(C)n(C)c5ccc(OC(F)(F)F)cc5c4=O)cc3F)ncnc2cc1OCCN1CCCCC1
IC50, nM: 2.2

compound: CCc1ccc2c(c1)c(=O)c(C(=O)Nc1ccc(Oc3ncnc4cc(OCCCN5CCOCC5)c(OC)cc34)c(F)c1)c(C)n2C [GDL5000123, reference compound]
IC50, nM: 1.2

###

# Tested on: MV4-11 cells
# assay.explanation: MV4-11 cell proliferation, CCK-8
# Assay type: cell-based
# experimental.parameters: Homo sapiens, 72 h, read-out: IC50 of inhibition of proliferation of MV4-11 cells
Items are presented alongside their recorded IC50.

molecule: CC(C)(C)c1cc(NC(=O)Nc2ccc(-c3cn4c(n3)sc3cc(OCCN5CCOCC5)ccc34)cc2)no1 [AC220, reference compound]
IC50: < 4 nM

molecule: COc1cc2c(Oc3ccc(NC(=O)c4c(C)n(C)c5ccc(OC(F)(F)F)cc5c4=O)cc3F)ncnc2cc1OCCCN1CCOCC1
IC50: < 0.4 nM

###

# target.or.test.system: Flt3 kinase (Homo sapiens)
# Sequence (P36888 27-993): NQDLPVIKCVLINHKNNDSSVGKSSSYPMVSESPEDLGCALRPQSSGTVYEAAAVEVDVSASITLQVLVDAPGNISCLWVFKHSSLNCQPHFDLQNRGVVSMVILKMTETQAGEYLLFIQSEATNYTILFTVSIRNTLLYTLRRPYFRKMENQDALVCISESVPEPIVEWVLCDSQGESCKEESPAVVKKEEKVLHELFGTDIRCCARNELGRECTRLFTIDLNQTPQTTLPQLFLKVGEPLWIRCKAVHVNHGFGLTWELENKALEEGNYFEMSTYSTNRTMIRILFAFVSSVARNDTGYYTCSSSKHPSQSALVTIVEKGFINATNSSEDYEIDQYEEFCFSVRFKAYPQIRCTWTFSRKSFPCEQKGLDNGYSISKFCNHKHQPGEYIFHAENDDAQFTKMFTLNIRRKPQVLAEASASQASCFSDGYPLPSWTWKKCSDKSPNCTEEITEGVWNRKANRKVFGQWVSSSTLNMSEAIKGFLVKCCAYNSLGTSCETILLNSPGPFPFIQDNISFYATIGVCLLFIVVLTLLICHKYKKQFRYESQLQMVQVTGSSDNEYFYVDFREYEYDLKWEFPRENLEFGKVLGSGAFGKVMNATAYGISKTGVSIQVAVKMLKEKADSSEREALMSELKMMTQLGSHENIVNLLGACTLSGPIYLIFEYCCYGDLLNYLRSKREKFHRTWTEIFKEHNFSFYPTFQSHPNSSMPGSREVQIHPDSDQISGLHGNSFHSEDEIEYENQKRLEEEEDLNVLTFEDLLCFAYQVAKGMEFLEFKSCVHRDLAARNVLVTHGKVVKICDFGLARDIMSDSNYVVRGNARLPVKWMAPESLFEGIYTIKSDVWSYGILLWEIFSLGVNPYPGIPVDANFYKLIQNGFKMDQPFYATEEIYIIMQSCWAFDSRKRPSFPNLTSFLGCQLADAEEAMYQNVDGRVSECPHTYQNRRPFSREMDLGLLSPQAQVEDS
Assign labels as follows, please: t for IC50 below 10 nM; f for IC50 equal to or exceeding 10 nM.

smiles.string: COCCCOc1cc2c(Oc3ccc(NC(=O)c4c(C)n(C)c5ccc(OC(F)(F)F)cc5c4=O)cc3F)ncnc2cc1OC
target.or.test.system: Flt3 kinase (Homo sapiens)
answer.label: f
//
smiles.string: COc1cc2ncnc(Oc3ccc(NC(=O)c4c(C)n(C)c5ccc(OC(F)(F)F)cc5c4=O)cc3F)c2cc1OC
target.or.test.system: Flt3 kinase (Homo sapiens)
answer.label: t
//
smiles.string: COc1cc2c(Oc3ccc(NC(=O)c4c(C)n(C)c5ccc(OC(F)(F)F)cc5c4=O)cc3F)ncnc2cc1OCCCN1CCOCC1
target.or.test.system: Flt3 kinase (Homo sapiens)
answer.label: t
//
smiles.string: COc1cc2c(Oc3ccc(NC(=O)c4c(C)n(C)c5ccc(OC(F)(F)F)cc5c4=O)cc3F)ncnc2cc1OCCN1CCOCC1
target.or.test.system: Flt3 kinase (Homo sapiens)
answer.label: t
//
smiles.string: COCCCCOc1cc2ncnc(Oc3ccc(NC(=O)c4c(C)n(C)c5ccc(OC(F)(F)F)cc5c4=O)cc3F)c2cc1OC
target.or.test.system: Flt3 kinase (Homo sapiens)
answer.label: f
